assay: growth inhibition of BT084 medulloblastoma cells, cell-based, ICGC_MB145, cisplatin and BGB IC40 combos (AID 1671461); conditions: drug combinations, measured here: BGB IC40 combination 0.05 uM, at 0.05 µM, stronger effect = higher value;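 note: cells exposed to drugs for 96 hours; 0% = vehicle DMSO and 100% = high DMSO full killing control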
Could you please report measured inhibition for the items listed next?
Answer with a number only, understood to be in %.

The measured inhibition associated with C[C@@H](CN1CC(=O)NC(=O)C1)N1CC(=O)NC(=O)C1 reads 19.5

The measured inhibition associated with Cc1ccc2nc(N)[nH]c(=O)c2c1Sc1ccncc1 reads -7.71

The measured inhibition associated with COc1c2ccoc2cc2oc(=O)ccc12 reads -9.91

The measured inhibition associated with Nc1ccc2cc3ccc(N)cc3nc2c1 reads -6.84

The measured inhibition associated with N=C(N=C(N)N)N1CCOCC1 reads 0.739

The measured inhibition associated with O=C(CCCCCCC(=O)Nc1ccccc1)NO reads -23.4

The measured inhibition associated with N=c1ccn2c(n1)O[C@H]1[C@H](O)[C@@H](CO)O[C@H]12 reads -14

The measured inhibition associated with O=c1[nH]c(=O)n([C@H]2C[C@H](O)[C@@H](CO)O2)cc1Br reads -20.2

The measured inhibition associated with O=c1c(O)c(-c2ccc(O)c(O)c2)oc2cc(O)ccc12 reads 5.57

The measured inhibition associated with CCn1nc(C(=O)O)c(=O)c2cc3c(cc21)OCO3 reads -12.7

* * *

assay: differential killing of epithelial or mesenchymal cells, primary screen, imaging, PC-3E GFP, TEM4-18 mCherry, co-culture (AID 1345086); conditions: imaging cell counts, at 1 µM, actives lie on both sides, counts scaled to control wells, 1 = unselective;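 note: normalised mesenchymal count divided by normalised epithelial count so high means epithelial killing; cells exposed to compound for 72 h before imaging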
Returns: string. Value is label 1 if measured red/green cell ratio (normalised) is below 1, and label 0 if it is greater than or equal to it.

Is red/green cell ratio (normalised) strictly under 1 for the entry CN1C[C@H](C(=O)N[C@]2(C)O[C@@]3(O)[C@@H]4CCCN4C(=O)[C@H](Cc4ccccc4)N3C2=O)C[C@@H]2c3cccc4[nH]cc(c34)C[C@H]21 ?
label 0

Is red/green cell ratio (normalised) strictly under 1 for the entry O=c1[nH]c(=O)n(C2C[C@H](O)[C@@H](CO)O2)cc1C(F)(F)F (some centres undefined) ?
label 0

Is red/green cell ratio (normalised) strictly under 1 for the entry CC(O)Cn1cnc2c1c(=O)n(C)c(=O)n2C (centres undefined) ?
label 1

Is red/green cell ratio (normalised) strictly under 1 for the entry COc1ccc(-c2coc3cc(O)ccc3c2=O)cc1 ?
label 1

Is red/green cell ratio (normalised) strictly under 1 for the entry CC1CC[C@@]2(OC1)O[C@H]1CC3C4CC[C@@H]5C[C@@H](O)CC[C@]5(C)C4CC[C@]3(C)[C@H]1[C@@H]2C (some centres undefined) ?
label 0

Is red/green cell ratio (normalised) strictly under 1 for the entry COC(=O)[C@@H]1OC(=O)C2OC23[C@@]1(C)CCC1[C@]2(C)C(C[C@@H](O)[C@]13C)C(C)(C)[C@H](OC(C)=O)C[C@@H]2OC(C)=O (some centres undefined) ?
label 1

Is red/green cell ratio (normalised) strictly under 1 for the entry O=[N+]([O-])c1ccc(O)c2ncccc12 ?
label 1

* * *

assay: glucagon-like peptide 1 release enhancers, primary assay, NCI-H716 cell line, NPC library (AID 1117341); conditions: NCI-H716 cells, at 10 µM
Activity calls are given as the source filed them.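 The calls were made as follows: active = compound raises GLP1 secretion from the human gut endocrine cells, with no numeric limit stated; inactive = the rest.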
Response enum: 1 for active, -1 for inactive

Assay result, entry Cc1cc(-c2ccc(N=Nc3c(S(=O)(=O)O)cc4cc(S(=O)(=O)O)cc(N)c4c3O)c(C)c2)ccc1N=Nc1c(S(=O)(=O)O)cc2cc(S(=O)(=O)O)cc(N)c2c1O — outcome?
-1

Assay result, entry CC(=O)N[C@@H](CCC(N)=O)C(=O)O — outcome?
-1

Assay result, entry C=CC(=O)Nc1cc2c(Nc3ccc(F)c(Cl)c3)ncnc2cc1OCCCN1CCOCC1 — outcome?
-1

Assay result, entry O=C(Nc1ccc(S(=O)(=O)N2CCOCC2)cc1)c1cc(Cl)ccc1NS(=O)(=O)c1ccc(Cl)s1 — outcome?
1

Assay result, entry C[C@@H](CN1CC(=O)NC(=O)C1)N1CC(=O)NC(=O)C1 — outcome?
-1

* * *

Could you please report measured inhibition for the items listed next?
experiment: growth inhibition of CRL1545 osteosarcoma cells, cell-based, cisplatin and BGB IC20 combos (AID 1671464); conditions: single agent, at 0.05 µM, stronger effect = higher value;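 note: cells exposed to compound for 96 hours before readout; 0% = vehicle DMSO and 100% = high DMSO killing control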
Answer with a number only, understood to be in %.

The measured inhibition associated with CNC1CCCN(c2c(F)cc3c(=O)c(C(=O)O)cn(C4CC4)c3c2OC)C1 (stereo not drawn) reads 2.8

The measured inhibition associated with COc1c2ccoc2cc2oc(=O)ccc12 reads -2.38

The measured inhibition associated with Nc1ccc2cc3ccc(N)cc3nc2c1 reads -52.5

The measured inhibition associated with O=c1[nH]c(=O)n([C@H]2C[C@H](O)[C@@H](CO)O2)cc1Br reads -0.752

The measured inhibition associated with N=c1ccn2c(n1)O[C@H]1[C@H](O)[C@@H](CO)O[C@H]12 reads -73.2

The measured inhibition associated with CN(N=O)C(=O)NC1C(O)OC(CO)C(O)C1O (stereo not drawn) reads -1.79

The measured inhibition associated with CN1CCN(c2c(F)cc3c(=O)c(C(=O)O)cn(CCF)c3c2F)CC1 reads 8.93

The measured inhibition associated with CN1CCN(c2c(F)cc3c(=O)c(C(=O)O)cn4c3c2OCN4C)CC1 reads -8.36

The measured inhibition associated with O=c1[nH]c(=O)n([C@H]2C[C@H](O)[C@@H](CO)O2)cc1C(F)(F)F reads -89

The measured inhibition associated with CCn1nc(C(=O)O)c(=O)c2cc3c(cc21)OCO3 reads 5.27

The measured inhibition associated with C[C@@H](CN1CC(=O)NC(=O)C1)N1CC(=O)NC(=O)C1 reads -57.8

The measured inhibition associated with O=c1cc[nH]c(=O)[nH]1 reads 4.62

The measured inhibition associated with COC1C(OC(N)=O)C(O)C(Oc2ccc3c(O)c(NC(=O)c4ccc(O)c(CC=C(C)C)c4)c(=O)oc3c2C)OC1(C)C (stereo not drawn) reads -14.9

* * *

Could you please report measured inhibition for the items listed next?
target: L-lactate dehydrogenase (Plasmodium falciparum (isolate CDC / Honduras)); experiment: PfLDH activity inhibition – cell lysate, 3D7 strain, counter-screen for P. falciparum growth inhibition project (AID 2304);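 note: 0% = vehicle and 100% = reference inhibitor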; conditions: P. falciparum 3D7 crude extract, LDH APAD/NBT absorbance; at 2 µM; stronger effect = higher value
Answer with a number only, understood to be in %.

The measured inhibition associated with Cc1cc(-c2ccc(O)c(CNC3CCCCC3)c2)cnc1N reads -4

The measured inhibition associated with O=C(Cn1cc(C=C2SC(=NC3CCCC3)N(C3CCCC3)C2=O)c2ccccc21)N1CCCC1 reads -1

The measured inhibition associated with O=C(Nc1cc(Cl)ccc1O)c1ccc(Oc2ccc(C(=O)Nc3cc(Cl)ccc3O)cc2)cc1 reads -3

The measured inhibition associated with Cc1cc(NCC2CCN(CC3CCCCC3)C2)nc(Nc2ccc(Br)cc2)n1 (stereo not given) reads 0

The measured inhibition associated with CCOC(=O)C(C)(C)Oc1ccc(C(=C2CC(C)(C)CC(C)(C)C2)c2ccc(O)cc2)cc1 reads 1

The measured inhibition associated with COc1cc2c(Nc3ccc(NC(=O)c4ccccc4)cc3)ncnc2cc1OCCCN1CCOCC1 reads 5

The measured inhibition associated with O=C(Nc1cccc(CN2CCCN(Cc3ccc(O)cc3)CC2)c1)c1cccc(Cl)c1 reads 5

The measured inhibition associated with CC(CCc1ccccc1)NCC(O)c1ccc2c(c1)S(=O)(=O)c1ccccc1N2 (stereo not given) reads 0

The measured inhibition associated with CC(C)CNCc1cccc(-c2ccc(CNC3CCN(Cc4ccccc4)CC3)cc2)c1 reads 3

The measured inhibition associated with CCCCCCCCNc1c2ccc(Cl)cc2nc2ccc(OC)cc12 reads -3

* * *

experiment: UWB1.289_BRCA1 ovarian cancer growth, cell-based, BGB or cisplatin combinations (AID 1671459); details: UWB1.289 BRCA1 ovarian carcinoma, drug combinations, at 0.5 µM, stronger effect = higher value
MEASUREMENT TYPE: inhibition (%)
Answer with a number only, understood to be in %.

The measured inhibition associated with O=c1[nH]c(=O)n([C@H]2C[C@H](O)[C@@H](CO)O2)cc1Br reads 9.43

The measured inhibition associated with N=C(N=C(N)N)N1CCOCC1 reads 3.22

The measured inhibition associated with CN1CCN(c2c(F)cc3c(=O)c(C(=O)O)cn4c3c2OCN4C)CC1 reads 0.06

The measured inhibition associated with CC1(C(=O)O)CCC2(C)CCC3(C)C(=CC(=O)C4C5(C)CCC(OC(=O)CCC(=O)O)C(C)(C)C5CCC43C)C2C1 (stereo unspecified) reads -12.8

The measured inhibition associated with COc1c2ccoc2cc2oc(=O)ccc12 reads -4.34

The measured inhibition associated with CCOC(=O)Nc1ccc(NCc2ccc(F)cc2)nc1N reads -1.39

The measured inhibition associated with CNC1CCCN(c2c(F)cc3c(=O)c(C(=O)O)cn(C4CC4)c3c2OC)C1 (stereo unspecified) reads -19.1

The measured inhibition associated with O=c1cc[nH]c(=O)[nH]1 reads -25

The measured inhibition associated with O=c1[nH]c(=O)n([C@H]2C[C@H](O)[C@@H](CO)O2)cc1C(F)(F)F reads -12.4

The measured inhibition associated with O=C(CCCCCCC(=O)Nc1ccccc1)NO reads 9.38

The measured inhibition associated with O=c1c(O)c(-c2ccc(O)c(O)c2)oc2cc(O)ccc12 reads 1.05
